Target: HLA B*07 (human)
Experiment: T2B7 HLA stabilisation assay, flow cytometry, peptide at 200 ug/ml
Provide the reported Avg. MFI 200 of each item.
Answers are plain numbers, in MFI.

GPGHEEPQLV [WNVB7 0011] : 849

// for each binder in input: emit Avg. MFI 200
1. SPHRVPNYNL [WNVB7 0020]
2. VPGTKIAGML [WNVB7 0018]

Response given:
1610
1090
